The reader will find reported melting point values listed item by item below.

Recorded melting point, per entry:
# compound, endpoint.result
records = [
    ("CC(=O)OC(c1ccccc1)C1C(=O)NC1S(C)(=O)=O (mixture of isomers)", "178 to 182 °C"),
    ("Cc1ccccc1N(CN1C(=O)CSC1=O)C(=O)CCl", "133 to 136 °C"),
    ("COc1ccc(Nc2ccc(Nc3ncnc4cc(-c5ccccc5)sc34)cc2)cc1", "210 to 211 °C"),
]

(Q) Look up melting point of COc1ccc(C(=O)OC(=C2C(=O)N(C(N)=O)c3cc(Cl)c(F)cc32)c2cccs2)cc1 and report it.
(A) 220 to 221 °C

====

Parameter melting point: see the listing below.

# annotated cases, reported melting point shown
# molecule, melting point
data = [
    ("Cn1ncc(/C=C/C(=O)Nc2ccc3[nH]c(=O)oc3c2)c1-c1ccc(F)cc1", "> 300 °C"),
    ("O=CN1CCCN(Cc2ccc(Cl)cc2)C1=C[N+](=O)[O-]", "131 to 133 °C"),
    ("COc1nc2cccc(C(=O)O)c2n1Cc1ccc(-c2ccccc2-c2nc(=O)o[nH]2)cc1", "189 to 190 °C"),
    ("C[C@@H](N)C(=O)N(O)C(=O)OC(C)(C)C", "115 to 117 °C"),
    ("OC1(C(Cl)Cl)O[C@H](COCc2ccccc2)[C@@H](OCc2ccccc2)[C@H](OCc2ccccc2)[C@H]1OCc1ccccc1 (stereo not given in full)", "72 to 73 °C"),
    ("Nc1cc(=O)[nH]c(=O)n1C1CCc2ccccc21 (stereo not given)", "> 295 °C"),
    ("Fc1cccc(-c2ccc3nnn(Cc4ccc5ncccc5c4)c3n2)c1", "145 to 147 °C"),
    ("Cc1ccc([C@@H]2c3c(C)c(NC(=O)Cc4ccc(C(F)(F)F)cc4)c(C)c(C)c3OC2(C)C)cc1", "187 to 189 °C"),
]

(Q) Return melting point for the following molecule: COc1cc2cc3c(Cl)c(C#N)cnc3nc2cc1OC
(A) > 300 °C

(Q) Check the records and state melting point for O=Cc1cn(C(c2ccccc2)(c2ccccc2)c2ccccc2)cn1
(A) 186 to 194 °C

====

outcome.measure: melting point

# compound, endpoint.result
rows = [
    ("COc1cc2nc(N3CCCN(C(=O)C=Cc4cccnc4)CC3)nc(N)c2cc1OC", "141 to 143 °C"),
    ("CC(C)C(C(=O)O)N(Cc1cccnc1)S(=O)(=O)c1ccc(-c2ccc(NC(=O)c3cc4ccccc4o3)cc2)cc1 (centres undefined)", "261 to 262 °C"),
    ("ONc1ccc(Cl)cc1", "83 to 84 °C"),
]

(Q) Please supply the value of reported melting point for the item O=S1(=O)c2ccccc2N(c2ccccc2O)c2ccccc21
(A) 282 to 287 °C

====

melting point values for the compounds below.

(Q) Supply reported melting point belonging to this compound: Clc1ccc(Nc2ncc(Sc3ccncc3)c3ccccc23)cc1
(A) 192 to 195 °C

(Q) For the compound CCOC(=O)CNc1ncccc1NC(=O)c1ccccc1Cl , report melting point.
(A) 111 to 112 °C

(Q) # return recorded melting point for entry CCCCCCCCCCCCCCCCCCOc1cc2ccccc2c(N=Nc2ccc(OC)cc2)c1O
(A) 95 to 97 °C

(Q) State its melting point for this compound: CC(=O)Nc1cc(C(C)(C)C)[nH]n1
(A) 194 to 195 °C

(Q) Please indicate melting point recorded for c1ccc2c(c1)nc(-c1ccc3c(c1)OCO3)n2Cc1ccc2c(c1)OCO2
(A) 173 to 174 °C

(Q) Answer with reported melting point of COc1cc(C)cc(OC)c1N(CC1CCCCC1)C(=O)CNC(=O)c1cc2ccccc2n1CCC(=O)O
(A) 110 °C

(Q) Give reported melting point value for Cn1ncnc1COc1nc2c(cc1-c1ccc(F)cc1)nnn2-c1ccccc1F
(A) 142 to 145 °C

(Q) For the compound CCCCCCCCCCCCCCCC(=O)NCCCSc1ccncc1 , report melting point.
(A) 84 to 85 °C

(Q) Identify the reported melting point for the following entry. O=C1NCCN1c1ccc(S(=O)(=O)Nc2cccc(Cl)c2)cc1
(A) 180 to 182 °C

(Q) // fetch melting point given entry COC(=O)c1c(C)nc2c(c1N)c1c(n2Cc2ccc(OC)cc2)CCCC1
(A) 130 to 131 °C

(Q) Please report the measured melting point for N#Cc1ccc(C=Cc2ccc(-c3ccccc3)cc2)cc1
(A) 235 to 254 °C

(Q) Report measured melting point; entry is COc1ccc2c(c1)CCN1CCC(Nc3ccc(NC(C)=O)cc3)CC21 (stereo not drawn)
(A) 219 to 221 °C

(Q) Give the value of melting point reported for the following: OCCN1CCC(Nc2nc3ccccc3n2Cc2ccc(F)cc2)CC1
(A) 139 °C

====

# melting point per entry

Answered cases to consult:
# molecule, melting point
data = [
    ("O=C(Cc1ccccc1)c1ccc(OCc2ccccc2)cc1O", "106 to 108 °C"),
    ("Cc1cc(C(=O)Nc2ccccc2O)cc(C)c1O", "142 to 145 °C"),
    ("CC(C)(C)OC(=O)N1CC[C@H](O)[C@H](F)C1 (relative stereo)", "48 °C"),
    ("Oc1cnc(C2CCCCC2)nc1", "163 °C"),
    ("COC(=O)c1ccc(Cl)cc1NC(=O)Cc1cccc(C#Cc2ccccc2)c1", "100 to 101 °C"),
]

Now let's try a different one.
(Q) Return melting point for the following molecule: Nc1nc2ccccc2c2c1nc(CCCOc1ccccc1)n2CCCNC(=O)c1ccccc1
(A) 192 to 194 °C

====

outcome.measure: melting point

(Q) For CCC(=O)NC[C@H]1CN(c2ccc(C3C=CS(=O)(=O)CC3)cc2)C(=O)O1 (some centres not stated) , write its melting point.
(A) 144 to 147 °C

(Q) Indicate the recorded melting point value for this compound: COc1cc(C(C)C)ccc1C1COc2c(C)c(C)cc(C)c21 (configuration not stated)
(A) 102 to 103 °C

(Q) For the compound O=C(NN1CCCCC1)C1CN(c2ccc(Cl)cc2)C(c2ccc(Cl)cc2Cl)=N1 (configuration not stated) , give its reported melting point.
(A) 113 to 116 °C

(Q) Give me measured melting point, please, for this compound: CCn1nnc(Cc2ccc(NC(=O)/C=C/c3cnn(C)c3-c3ccc(F)cc3)cc2)n1
(A) 187 to 188 °C

(Q) State, in one line, measured melting point of COc1cc(OC)nc(Oc2cccc(Oc3nc(OC)cc(OC)n3)c2C(=O)OCc2ccccc2)n1
(A) 130 to 132 °C

(Q) Kindly indicate its recorded melting point. Item: O=c1[nH]c2ncc(-c3ccc(-n4ccnc4)cc3)nc2n1CC1CCCCC1
(A) 284 to 287 °C

(Q) Look up and report measured melting point for this entry: Cc1ccccc1Cn1c(=O)[nH]c2cc(Cl)cc(Cl)c2c1=O
(A) 274 to 276 °C

====

outcome.measure: melting point

Some entries whose results are on file:
# compound, melting point
data = [
    ("O=c1[nH]c2cc(NO)ccc2c(=O)n1CCCCN1CC=C(c2ccccc2)CC1", "187 to 189 °C"),
    ("O=S(=O)(Nc1ccc(Cl)c(Cl)c1)c1cc(S(=O)(=O)Nc2ccc(Cl)c(Cl)c2)c2cc(O)ccc2c1", "158 to 160 °C"),
    ("O=C(O)Cc1ccc2c3ccccc3n(Cc3ccccc3)c2c1", "149 to 150 °C"),
    ("CC(=O)NCC1CN(c2ccc(NC=O)c(F)c2)C(=O)O1 (stereo not drawn)", "196 to 198 °C"),
]

(Q) Input Nc1cc(N2CCc3ccccc3C2)ccn1 , output reported melting point.
(A) 160 to 161 °C

(Q) Return the recorded melting point value; entry: Cc1ccc(C(=O)Nc2c(NC(=O)CN(C)C)ccc3c2C(=O)c2ccccc2C3=O)cc1
(A) 190 to 191 °C

(Q) Respond only with melting point recorded for CN1CCN(c2cc(Cl)cc3c2c(=O)n(CCc2ccccc2)c(=O)n3Cc2ccccc2)CC1
(A) 136 to 138 °C

(Q) Retrieve melting point measured for CC(C)Oc1ccc(C(=O)[NH+]([O-])c2c(Cl)cncc2Cl)c2c1oc1ccccc12 (stereo not drawn) and print it.
(A) 247 to 248 °C

(Q) Specify measured melting point for CC[C@@H]1CN(c2c(F)cc3c(=O)c(C(=O)O)cn4c3c2OC[C@@H]4C)C[C@H]1N .
(A) 189 to 191 °C

(Q) Give melting point for CC(Nc1nc(-c2ccccc2)cs1)c1ccc(COc2ccc(CC(=O)O)cc2)cc1 (stereo not drawn)
(A) 116 to 118 °C

(Q) Let me know recorded melting point for O=C1N(Cc2noc(C3CC3)n2)c2cccc(Cl)c2C12COc1cc3c(cc12)OCO3 (stereo not drawn) , thanks.
(A) 180 to 182 °C

(Q) Give the reported melting point for this compound. CCCCn1nc(C=O)nc1Cc1ccc(-c2ccccc2-c2nnn[nH]2)nc1
(A) 167 to 168 °C

(Q) Recall and state the measured melting point for CN(C)CCOc1ccc(Cl)c(C(=O)NCC23CC4CC(CC(C4)C2)C3)c1 .
(A) 144 to 147 °C
